- run-parameters: pH 9.2
observation-type: logD
Give the figure by itself; no unit, no explanation.

Input C=CCOC(Cn1ccnc1)c1ccc(Cl)cc1Cl (stereo unspecified) , output reported logD.
3.82

* * *

- run-parameters: pH 13.0
Consider the cut-off 1. If the recorded logD is strictly smaller, the label is Criterion met; if not, the label is Criterion not met.

Some solved entries appear below for comparison.
Nc1ncc(Cc2cccc(Cl)c2Cl)c(N)n1; Criterion not met
N=C(N)c1cccc([N+](=O)[O-])c1; Criterion met

# TODO verify logD < 1 strictly for this molecule: Cc1ccc(Cc2cnc(N)nc2N)c(C)c1N
Criterion not met

# TODO verify logD < 1 strictly for this molecule: CCNCCNCC
Criterion met

# TODO verify logD < 1 strictly for this molecule: CCc1cc(Cc2cnc(N)nc2N)cc(CC)c1N
Criterion not met

# TODO verify logD < 1 strictly for this molecule: CC(C)NC(C)(C)C
Criterion not met

# TODO verify logD < 1 strictly for this molecule: COc1ccc(Oc2cnc(N)nc2N)c(OC)c1OC
Criterion met

# TODO verify logD < 1 strictly for this molecule: N=C(N)c1ccc(N)cc1
Criterion met

# TODO verify logD < 1 strictly for this molecule: CCOC(OCC)OCC
Criterion not met

# TODO verify logD < 1 strictly for this molecule: N#CCN
Criterion met

# TODO verify logD < 1 strictly for this molecule: CN(C)CCNCCN
Criterion met

# TODO verify logD < 1 strictly for this molecule: c1ccc(N2CCNCC2)cc1
Criterion not met

# TODO verify logD < 1 strictly for this molecule: CN1CCN(C)CC1
Criterion met

# TODO verify logD < 1 strictly for this molecule: CC(C)CN(CC(O)COc1ccccc1)CC(O)COc1ccccc1 (stereo unspecified)
Criterion not met

# TODO verify logD < 1 strictly for this molecule: C#CCN
Criterion met

# TODO verify logD < 1 strictly for this molecule: Cc1cc(C)c(N(C)C)c(C)c1
Criterion not met

* * *

observation-type: logP
Give the figure by itself; no unit, no explanation.

Here are 3 compounds together with their reported answers.
COc1cccc2ccccc12; 3.63
CC(C)CN(C)CC(C)C; 2.34
CC(=O)C(C)C; 0.84

Input OCCCF , output reported logP.
-0.28

Input CC1(C)CNC(=NN=C(C=Cc2ccc(C(F)(F)F)cc2)C=Cc2ccc(C(F)(F)F)cc2)NC1 , output reported logP.
2.31

Input CCc1ccncc1 , output reported logP.
1.65

Input S=C(N/N=C/c1ccco1)Nc1ccccc1 , output reported logP.
3.13

Input Cc1ccc(O)c(-n2nc3ccccc3n2)c1 , output reported logP.
4.31

Input COCCOc1ccccc1OCCOC , output reported logP.
1.12

* * *

- run-parameters: pH 11.3
observation-type: logD

Input CC(=O)NCCCOc1cccc(CN2CCCCC2)c1 , output reported logD.
2.15

* * *

observation-type: logP
Give the figure by itself; no unit, no explanation.

Here are 6 compounds together with their reported answers.
CCNC(=O)C1C2C=CC(C2)C1C(=O)NCC (stereo not given); 0.99
N#Cc1cccc(C=O)c1; 1.18
Cn1c(N)nc2ccc(C#N)cc21; 1.29
CC1=C(N2CC2)C(=O)c2ccc(CCOC(N)=O)c(N3CC3)c2C1=O; 0.16
O=[N+]([O-])c1cc2[nH]c(C(F)(F)F)nc2cc1Cl; 3.21
N#CCc1ccc([N+](=O)[O-])cc1; 1.37

Input Nc1cc(Cl)c(Cl)cc1N , output reported logP.
2

Input CC(C)c1ccc(O)cc1 , output reported logP.
2.9

Input CCCCc1c(C)[nH]c(N(C)C)nc1=O , output reported logP.
1.9

Input CCc1cccc(CC)c1NC(=O)OC , output reported logP.
1.99

Input CC(C(=O)O)c1ccc(N2C(=O)C3CC=CCC3C2=O)cc1 (stereo not given) , output reported logP.
2.27

Input OC1CCCCCCCCCCC1 , output reported logP.
3.75

Input CC#CC#CC , output reported logP.
2.24

Input O=C(CCn1cnc([N+](=O)[O-])n1)NCCO , output reported logP.
-1.32

Input CC(=O)COc1ccccc1 , output reported logP.
1.04

Input COC(=O)CCCCCC(=O)OC , output reported logP.
1.38

Input CCON=C(OC(=O)c1ccccc1)c1c(OC)ccc(Cl)c1OC , output reported logP.
2.4

Input COC1=C(N2CC2)C(=O)C(OC)=C(N2CC2)C1=O , output reported logP.
0.17

Input O=C(CCBr)N1CCN(C(=O)CCBr)CC1 , output reported logP.
0.42
